Task for the reader: assign each of the following compounds its reported pIC50.
molecular target: Purine nucleoside phosphorylase (Bos taurus) (UniProt P55859); assay: Inhibition of calf spleen PNP (purine nucleoside phosphorylase) in 50 mM phosphate
Sequence (P55859 whole entry, looked up): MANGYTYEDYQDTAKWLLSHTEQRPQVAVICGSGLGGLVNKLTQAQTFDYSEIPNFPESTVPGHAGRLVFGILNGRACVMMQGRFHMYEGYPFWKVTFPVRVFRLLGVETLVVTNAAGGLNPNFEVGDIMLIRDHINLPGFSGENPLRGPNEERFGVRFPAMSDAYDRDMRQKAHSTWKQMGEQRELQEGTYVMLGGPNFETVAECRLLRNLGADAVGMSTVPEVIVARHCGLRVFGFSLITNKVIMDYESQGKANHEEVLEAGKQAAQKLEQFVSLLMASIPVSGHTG
Lab note — pIC50 values are minus log10 of concentrations in M.

Request body: readout pIC50, system Purine nucleoside phosphorylase (Bos taurus) (UniProt P55859), query `CC(C)(CCn1cnc2c(=O)[nH]c(N)nc21)CCS(=O)(=O)O` . Return the value.
5.05

Would you mind doing `CC(C)(CCn1cnc2c(=O)[nH]c(N)nc21)CCP(=O)(O)O` as well?
5.70

Would you mind doing `CC(C)(CCC(=O)O)CCn1cnc2c(=O)[nH]c(N)nc21` as well?
3.54

Would you mind doing `CC(C)(CCS)CCn1cnc2c(=S)[nH]c(N)nc21` as well?
4.02

---

molecular target: Purine nucleoside phosphorylase (Bos taurus) (UniProt P55859); assay: Inhibition of calf spleen PNP (purine nucleoside phosphorylase) in 1 mM phosphate
quantityName: pIC50
Lab note — pIC50 values are minus log10 of concentrations in M.

What pIC50 value was documented for this molecule, `CC(C)(CCC(N)=O)CCn1cnc2c(=O)[nH]c(N)nc21` ?
3.70

Would you mind doing `CC(C)(CCn1cnc2c(=O)[nH]c(N)nc21)CCS(=O)(=O)O` as well?
6.74

Would you mind doing `CC(C)(CCn1cnc2c(=O)[nH]c(N)nc21)CCS(N)(=O)=O` as well?
4.00

Would you mind doing `CC(C)(CCn1cnc2c(=O)[nH]c(N)nc21)CCP(=O)(O)O` as well?
7.36

Would you mind doing `CC(C)(CCC(=O)O)CCn1cnc2c(=O)[nH]c(N)nc21` as well?
5.10

Would you mind doing `CC(C)(CCC#N)CCn1cnc2c(=O)[nH]c(N)nc21` as well?
3.59

Would you mind doing `CC(C)(CCS)CCn1cnc2c(=S)[nH]c(N)nc21` as well?
4.30

---

molecular target: Purine nucleoside phosphorylase (Bos taurus) (UniProt P55859); assay: Inhibition of calf spleen PNP (purine nucleoside phosphorylase) in 50 mM phosphate
quantityName: IC50

What IC50 value was documented for this compound, `CC(C)(CCC(N)=O)CCn1cnc2c(=O)[nH]c(N)nc21` ?
> 300 µM

Would you mind doing `CC(C)(CCC#N)CCn1cnc2c(=O)[nH]c(N)nc21` as well?
> 300 µM

Would you mind doing `CC(C)(CCn1cnc2c(=O)[nH]c(N)nc21)CCS(N)(=O)=O` as well?
> 300 µM
